test system: VEEV TC83; assay: microbe, parasite or virus in culture; assay type: cell-based, Venezuelan equine encephalitis virus; settings: Venezuelan equine encephalitis virus, read-out: Human BE(2)-M17 (TC83) EC50 (μM)
observation type: EC50

Incoming: Name the recorded EC50 for COC(=O)/C=C/CNC(=O)c1c[nH]c2ccc(C)cc12 .
Outgoing: > 25 µM

Incoming: Name the recorded EC50 for COC(=O)/C=C/[C@H](Cc1ccccc1)NC(=O)c1c[nH]c2ccc(Cl)cc12 .
Outgoing: > 50 µM

Incoming: Name the recorded EC50 for Cc1ccc(Cl)c(Nc2ccccc2C(=O)NC/C=C/S(C)(=O)=O)c1Cl .
Outgoing: 18.2 µM

Incoming: Name the recorded EC50 for COC(=O)/C=C/[C@H](Cc1ccccc1)NC(=O)c1cc(C)cc2c1NC(C)(C)C=C2C .
Outgoing: > 50 µM

Incoming: Name the recorded EC50 for CS(=O)(=O)/C=C/CNC(=O)c1ccccc1Nc1cccc(Cl)c1Cl .
Outgoing: > 25 µM

Incoming: Name the recorded EC50 for COC(=O)/C=C/C(C)(C)NC(=O)c1cccc2c1NC(C)(C)C[C@H]2C .
Outgoing: > 25 µM

Incoming: Name the recorded EC50 for COC(=O)/C=C/CNC(=O)c1cccc2nccnc12 .
Outgoing: > 25 µM

Incoming: Name the recorded EC50 for CC1=CC(C)(C)Nc2c(C(=O)NC(C)(C)/C=C/S(C)(=O)=O)cccc21 .
Outgoing: > 25 µM

Incoming: Name the recorded EC50 for COC(=O)/C=C/CNC(=O)c1cccc2ccc(C)nc12 .
Outgoing: > 25 µM

Incoming: Name the recorded EC50 for COC(=O)/C=C/[C@H](C)NC(=O)c1cccc2c1NC(C)(C)C[C@H]2C .
Outgoing: > 25 µM

Incoming: Name the recorded EC50 for C[C@@H]1CC(C)(C)Nc2c(C(=O)N[C@H](/C=C/S(=O)(=O)c3ccccc3)Cc3ccccc3)cccc21 .
Outgoing: > 25 µM

Incoming: Name the recorded EC50 for Cc1ccc2cccc(C(=O)NC/C=C/S(C)(=O)=O)c2n1 .
Outgoing: > 25 µM

Incoming: Name the recorded EC50 for CS(=O)(=O)/C=C/CNC(=O)c1ccccc1Nc1ccccc1 .
Outgoing: > 25 µM

Incoming: Name the recorded EC50 for CS(=O)(=O)/C=C/[C@H](Cc1ccccc1)NC(=O)c1cccc2cccnc12 .
Outgoing: > 25 µM

Incoming: Name the recorded EC50 for COc1ccc2[nH]cc(C(=O)N[C@H](/C=C/S(=O)(=O)c3ccccc3)Cc3ccccc3)c2c1 .
Outgoing: 23.9 µM

Incoming: Name the recorded EC50 for C[C@@H]1CC(C)(C)Nc2c(C(=O)NC(C)(C)/C=C/S(C)(=O)=O)cccc21 .
Outgoing: > 25 µM

Incoming: Name the recorded EC50 for COC(=O)/C=C/CNC(=O)c1ccccc1Nc1c(Cl)ccc(C)c1Cl .
Outgoing: > 25 µM

Incoming: Name the recorded EC50 for CC1=CC(C)(C)Nc2c(C(=O)N[C@H](/C=C/S(=O)(=O)c3ccccc3)Cc3ccccc3)cccc21 .
Outgoing: > 25 µM

====

system: Neuro-2a cells; details: mouse
Give measured Mouse Neuro-2a (TC83) CC50 for each item. Keep answers brief.

Incoming: Name the recorded Mouse Neuro-2a (TC83) CC50 for CC1=CC(C)(C)Nc2c(C(=O)N[C@H](/C=C/S(C)(=O)=O)Cc3ccccc3)cc(C)cc21 [Compound 37] .
Outgoing: >50.00 µM

Incoming: Name the recorded Mouse Neuro-2a (TC83) CC50 for COC(=O)/C=C/[C@H](Cc1ccccc1)NC(=O)c1c[nH]c2ccc(Cl)cc12 [Compound 28] .
Outgoing: >50.00 µM

Incoming: Name the recorded Mouse Neuro-2a (TC83) CC50 for COC(=O)/C=C/CNC(=O)c1ccccc1Nc1cccc(Cl)c1Cl [Compound 20] .
Outgoing: 1.52 µM

Incoming: Name the recorded Mouse Neuro-2a (TC83) CC50 for C[C@@H]1CC(C)(C)Nc2c(C(=O)N[C@H](/C=C/S(=O)(=O)c3ccccc3)Cc3ccccc3)cccc21 [Compound 42] .
Outgoing: >25.00 µM

Incoming: Name the recorded Mouse Neuro-2a (TC83) CC50 for CS(=O)(=O)/C=C/[C@H](Cc1ccccc1)NC(=O)c1cccc2cccnc12 [Compound 36] .
Outgoing: >25.00 µM

Incoming: Name the recorded Mouse Neuro-2a (TC83) CC50 for CC1=CC(C)(C)Nc2c(C(=O)NC(C)(C)/C=C/S(C)(=O)=O)cccc21 [Compound 38] .
Outgoing: >25.00 µM

Incoming: Name the recorded Mouse Neuro-2a (TC83) CC50 for COC(=O)/C=C/CNC(=O)c1c[nH]c2ccc(C)cc12 [Compound 21] .
Outgoing: >25.00 µM

Incoming: Name the recorded Mouse Neuro-2a (TC83) CC50 for CS(=O)(=O)/C=C/CNC(=O)c1cccc2nccnc12 [Compound 34] .
Outgoing: >25.00 µM

Incoming: Name the recorded Mouse Neuro-2a (TC83) CC50 for CS(=O)(=O)/C=C/CNC(=O)c1ccccc1Nc1cccc(Cl)c1Cl [Compound 33] .
Outgoing: 15.48 µM

Incoming: Name the recorded Mouse Neuro-2a (TC83) CC50 for COC(=O)/C=C/[C@H](Cc1ccccc1)NC(=O)c1cc(C)cc2c1NC(C)(C)C=C2C [Compound 30] .
Outgoing: >50.00 µM

The reported numbers originate from patent US11905249B2.
